Attribution: patent US20100267561A1

# Tested on: large crabgrass (Digitaria sanguinalis)
# experiment_notes: Test A pre-/postemergence plant response
# Assay type: in vivo
# condition_summary: Preemergence, 125 g ai/ha; 0 to 100 scale (0 no effect, 100 complete control)
attribute_measured: Plant response rating, Crabgrass, Large
Give your answer as a number; write no unit.

Example results:
Cn1ncc(O)c(-c2nn(-c3ccc(C(F)(F)F)cc3)cc2Cl)c1=O [Compound 88] :: 90
Cc1cc(-c2ccc(Cl)cc2)nn1-c1c(OS(=O)(=O)c2ccccc2[N+](=O)[O-])cnn(C)c1=O [Compound 51] :: 100
CCc1cc(-c2ccc(Cl)s2)nn1-c1c(O)cnn(C)c1=O [Compound 63] :: 0
Cn1ncc(O)c(-c2nn(-c3ccc(C(F)(F)F)cn3)cc2Br)c1=O [Compound 71] :: 60
Cn1ncc(O)c(-c2nn(-c3ccc(Cl)cc3)cc2Cl)c1=O [Compound 28] :: 90

Now turn to the next molecule.
Short answer for Cc1cc(-c2ccc(Cl)cc2)nn1-c1c(OC(=O)C(C)C)cnn(C)c1=O [Compound 34] : Plant response rating, Crabgrass, Large was 90
